// reported CC50 per item
# assayName: Cytotoxicity against human MT4 cells
# Assay type: cell-based

{"querySmiles": "COc1ccc(-c2nnsc2SCC(=O)Nc2ccccc2[N+](=O)[O-])cc1", "CC50": "≥ 281 µM"}
{"querySmiles": "O=C(CSc1snnc1-c1ccc(F)cc1F)Nc1ccccc1[N+](=O)[O-]", "CC50": "165 µM"}
{"querySmiles": "O=C(CSc1snnc1-c1ccc(Cl)cc1Cl)Nc1ccccc1Cl", "CC50": "111 µM"}
{"querySmiles": "Cc1ccnc2c1NC(=O)c1cccnc1N2C1CC1", "CC50": "> 15 µM"}
{"querySmiles": "CCOC(=O)c1ccc(NC(=O)CSc2snnc2-c2ccc(OC)cc2)c(Br)c1", "CC50": "> 246 µM"}
{"querySmiles": "O=C(CSc1snnc1-c1ccccc1)Nc1ccccc1[N+](=O)[O-]", "CC50": "≥ 247 µM"}
{"querySmiles": "Cc1ccc(NC(=O)CSc2snnc2-c2ccc(Cl)cc2Cl)c(Br)c1", "CC50": "> 256 µM"}
{"querySmiles": "CC(C)Nc1cccnc1N1CCN(C(=O)c2cc3cc(NS(C)(=O)=O)ccc3[nH]2)CC1", "CC50": "> 3.83 µM"}
{"querySmiles": "COc1ccc(-c2nnsc2SCC(=O)Nc2ccccc2Cl)cc1", "CC50": "> 319 µM"}
{"querySmiles": "COC(=O)c1ccc(NC(=O)CSc2snnc2-c2ccccc2)c(Br)c1", "CC50": "> 269 µM"}
{"querySmiles": "O=C(CSc1snnc1-c1ccc(Cl)cc1Cl)Nc1ccccc1F", "CC50": "19.5 µM"}
{"querySmiles": "O=C(CSc1snnc1-c1ccc(F)cc1F)Nc1ccccc1Cl", "CC50": "178 µM"}
{"querySmiles": "O=C(CSc1snnc1-c1ccccc1)Nc1ccccc1F", "CC50": "> 362 µM"}
{"querySmiles": "Cc1cn([C@H]2C[C@H](N=[N+]=[N-])[C@@H](CO)O2)c(=O)[nH]c1=O", "CC50": "> 93.5 µM"}
{"querySmiles": "O=C(CSc1snnc1-c1ccccc1)Nc1ccccc1Br", "CC50": "> 308 µM"}
